Each recorded value in this set is attributed to paper PMC9655037.

- system: MDR1 (P-gp) (Homo sapiens, UniProt P08183)
- Sequence (P08183 whole entry): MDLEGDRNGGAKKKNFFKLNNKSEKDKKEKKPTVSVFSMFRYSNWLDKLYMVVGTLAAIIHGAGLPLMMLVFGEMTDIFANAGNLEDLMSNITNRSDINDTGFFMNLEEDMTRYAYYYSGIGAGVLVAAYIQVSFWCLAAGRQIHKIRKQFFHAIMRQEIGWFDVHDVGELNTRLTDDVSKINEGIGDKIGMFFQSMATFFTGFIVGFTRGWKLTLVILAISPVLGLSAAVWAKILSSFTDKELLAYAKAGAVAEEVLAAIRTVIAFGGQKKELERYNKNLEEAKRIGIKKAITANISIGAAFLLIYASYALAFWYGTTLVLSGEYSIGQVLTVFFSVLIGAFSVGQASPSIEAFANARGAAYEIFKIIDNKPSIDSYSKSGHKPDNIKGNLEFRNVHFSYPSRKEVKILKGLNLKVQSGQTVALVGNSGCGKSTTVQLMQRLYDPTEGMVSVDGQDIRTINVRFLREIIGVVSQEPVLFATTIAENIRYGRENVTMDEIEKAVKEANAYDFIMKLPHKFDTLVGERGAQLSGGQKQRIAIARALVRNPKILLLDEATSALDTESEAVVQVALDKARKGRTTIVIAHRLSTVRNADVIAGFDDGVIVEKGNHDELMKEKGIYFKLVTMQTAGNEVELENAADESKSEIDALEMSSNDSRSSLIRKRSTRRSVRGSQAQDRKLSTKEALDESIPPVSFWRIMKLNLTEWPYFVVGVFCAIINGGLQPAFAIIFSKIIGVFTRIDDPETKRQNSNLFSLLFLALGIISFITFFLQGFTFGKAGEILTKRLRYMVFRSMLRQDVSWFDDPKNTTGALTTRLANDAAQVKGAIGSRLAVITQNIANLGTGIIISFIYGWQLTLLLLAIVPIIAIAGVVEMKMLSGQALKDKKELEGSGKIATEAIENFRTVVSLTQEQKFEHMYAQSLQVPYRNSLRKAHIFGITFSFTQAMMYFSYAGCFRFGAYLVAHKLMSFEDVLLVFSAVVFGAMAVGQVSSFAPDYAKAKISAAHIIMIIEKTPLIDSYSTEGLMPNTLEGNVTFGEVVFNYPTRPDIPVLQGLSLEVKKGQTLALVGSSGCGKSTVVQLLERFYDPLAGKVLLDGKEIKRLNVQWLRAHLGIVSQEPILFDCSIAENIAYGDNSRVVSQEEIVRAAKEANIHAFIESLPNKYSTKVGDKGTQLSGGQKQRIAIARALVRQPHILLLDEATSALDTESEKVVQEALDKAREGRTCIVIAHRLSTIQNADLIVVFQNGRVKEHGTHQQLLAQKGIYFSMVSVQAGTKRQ
- experiment.summary: Bidirectional transport in MDR1-transfected LLC-PK1 cells
Measured Papp A→B at 2 h, listed per entry for reference.
Respond with the bare value in ×10⁻⁶ cm/s.

[
  {
    "compound": "COCCc1ccc(OCC(O)CNC(C)C)cc1 (centres unmarked) [Metoprolol, metoprolol]",
    "system": "MDR1 (P-gp) (Homo sapiens, UniProt P08183)",
    "numeric.readout": 28.2
  }
]

Reported Papp A→B at 2 h of COc1ccc2cc1Oc1ccc(cc1)C[C@H]1c3cc(c(OC)cc3CCN1C)Oc1c(OC)c(OC)cc3c1[C@H](C2)N(C)CC3 [TET, Tetrandrine] : 0.52
